protocol: Pharmacokinetics of a single ascending oral dose in healthy male subjects
Assay type: in vivo, human
measurementContext: human, in vivo; single oral dose 200 mg, unformulated in capsule, healthy male subjects; geometric mean
reportedEndpoint: Cmax (ng/mL)
Reply numerically in ng/mL, unit not repeated.

Measured Cmax of O[C@H]1CC[C@H](Nc2ncc3nc(Nc4c(F)cc(F)cc4F)n([C@H]4CCOC4)c3n2)CC1 [Compound I] : 1430

###

protocol: Pharmacokinetics of a single ascending oral dose in healthy male subjects
Assay type: in vivo, human
measurementContext: human, in vivo; single oral dose 25 mg, unformulated in capsule, healthy male subjects; median (min-max); read-out: Tmax
reportedEndpoint: Tmax (h)
Kindly answer with a numeric value in h, unit omitted.

Kindly note the recorded Tmax for O[C@H]1CC[C@H](Nc2ncc3nc(Nc4c(F)cc(F)cc4F)n([C@H]4CCOC4)c3n2)CC1 , which is 1.5

###

protocol: Pharmacokinetics (plasma and urine) of ascending multiple oral doses in healthy volunteers
Type: in vivo, human
measurementContext: both sexes, human, plasma, oral, 25 mg, 25 mg QD, Day 14, plasma (N = 8); geometric mean
reportedEndpoint: AUC(0-inf) (ng·h/mL)
Give the quantity in ng·h/mL, number only.

Summary for this molecule, O[C@H]1CC[C@H](Nc2ncc3nc(Nc4c(F)cc(F)cc4F)n([C@H]4CCOC4)c3n2)CC1 [Compound I] : AUC(0-inf) is 10200

###

protocol: clinical
measurementContext: female, human, in vivo, po, 100 mg, AUCO-inf
reportedEndpoint: AUC (ng·h/mL)
// return numeric value only (unit: ng·h/mL, not printed)

Value of measured AUC for the entry O[C@H]1CC[C@H](Nc2ncc3nc(Nc4c(F)cc(F)cc4F)n([C@H]4CCOC4)c3n2)CC1 : 13300

###

protocol: Pharmacokinetics of a single ascending oral dose in healthy male subjects
Type: in vivo, human
measurementContext: human, in vivo; single oral dose 100 mg, unformulated in capsule, healthy male subjects; geometric mean
reportedEndpoint: AUC(0-t) (ng·h/mL)
A number alone suffices; assume ng·h/mL.

Memo: O[C@H]1CC[C@H](Nc2ncc3nc(Nc4c(F)cc(F)cc4F)n([C@H]4CCOC4)c3n2)CC1 [Compound I] , reported AUC(0-t): 10800

###

protocol: Pharmacokinetics of a single ascending oral dose in healthy male subjects
Type: in vivo, human
measurementContext: human, in vivo; single oral dose 50 mg, unformulated in capsule, healthy male subjects; geometric mean
reportedEndpoint: Cmax
Answer with the number, then the unit.

The reported value for O[C@H]1CC[C@H](Nc2ncc3nc(Nc4c(F)cc(F)cc4F)n([C@H]4CCOC4)c3n2)CC1 [Compound I] in terms of Cmax is 367 ng/mL

###

protocol: Pharmacokinetics of a single ascending oral dose in healthy male subjects
Type: in vivo, human
measurementContext: human, in vivo; single oral dose 25 mg, unformulated in capsule, healthy male subjects; geometric mean
reportedEndpoint: AUC(0-t)
Could you kindly put the unit after your number?

For this compound ( O[C@H]1CC[C@H](Nc2ncc3nc(Nc4c(F)cc(F)cc4F)n([C@H]4CCOC4)c3n2)CC1 ), measured AUC(0-t) is 3150 ng·h/mL

###

protocol: Pharmacokinetics of a single ascending oral dose in healthy male subjects
Format: in vivo, human
measurementContext: human, in vivo; single oral dose 100 mg, unformulated in capsule, healthy male subjects; geometric mean
reportedEndpoint: half-life (h)
Numbers only; they are read as h.

Looking up O[C@H]1CC[C@H](Nc2ncc3nc(Nc4c(F)cc(F)cc4F)n([C@H]4CCOC4)c3n2)CC1 [Compound I] , I found its half-life recorded as 27.5

###

protocol: clinical
measurementContext: male, human, in vivo, po, 100 mg, Cmax
reportedEndpoint: Cmax (µg/mL)
API: value field is a number in µg/mL; no unit string.

Input O[C@H]1CC[C@H](Nc2ncc3nc(Nc4c(F)cc(F)cc4F)n([C@H]4CCOC4)c3n2)CC1 [Compound I] . Output Cmax: 0.646

###

protocol: Pharmacokinetics (plasma and urine) of ascending multiple oral doses in healthy volunteers
Type: in vivo, human
measurementContext: both sexes, human, plasma, oral, 50 mg, 50 mg QD, Day 14, plasma, τ = 24 hours (N = 8); geometric mean; read-out: AUC(0-τ)
reportedEndpoint: AUC (ng·h/mL)
Expressed in ng·h/mL, but write only the number.

What the record says about O[C@H]1CC[C@H](Nc2ncc3nc(Nc4c(F)cc(F)cc4F)n([C@H]4CCOC4)c3n2)CC1 : AUC is 9810

###

protocol: Pharmacokinetics (plasma and urine) of ascending multiple oral doses in healthy volunteers
Format: in vivo, human
measurementContext: both sexes, human, plasma, oral, 50 mg, 50 mg QD, Day 1, plasma, τ = 24 hours (N = 8); geometric mean; read-out: AUC(0-τ)
reportedEndpoint: AUC (ng·h/mL)
Quick note: give the figure in ng·h/mL, leave out the unit.

Value of measured AUC for the entry O[C@H]1CC[C@H](Nc2ncc3nc(Nc4c(F)cc(F)cc4F)n([C@H]4CCOC4)c3n2)CC1 : 4560

###

protocol: clinical
measurementContext: female, human, in vivo, po, 100 mg, Tmax
reportedEndpoint: Tmax (h)
Quick reminder: number only, in h, skip the unit.

Measured Tmax of O[C@H]1CC[C@H](Nc2ncc3nc(Nc4c(F)cc(F)cc4F)n([C@H]4CCOC4)c3n2)CC1 : 2.19

###

protocol: Toxicokinetics in pregnant female rats
Type: in vivo, rat
measurementContext: female, CD [Crl:CD(SD)], rat, fetal blood (pooled), oral, 25 mg/kg/day; rats, 25 mg/kg/d, 2 hours after dosing on Gestation Day 17; read-out: Fetus concentration (pooled fetal blood samples)
reportedEndpoint: concentration at 2 h (ng/mL)
Just the number please, in ng/mL, no unit attached.

Consider O[C@H]1CC[C@H](Nc2ncc3nc(Nc4c(F)cc(F)cc4F)n([C@H]4CCOC4)c3n2)CC1 . Its measured concentration at 2 h is 897

###

protocol: Pharmacokinetics (plasma and urine) of ascending multiple oral doses in healthy volunteers
Assay type: in vivo, human
measurementContext: both sexes, human, plasma, oral, 100 mg, 100 mg QD, Day 14, plasma, τ = 24 hours (N = 8); geometric mean; read-out: AUC(0-τ)
reportedEndpoint: AUC (ng·h/mL)
Write the value in ng·h/mL as a bare number.

// field: AUC; key: O[C@H]1CC[C@H](Nc2ncc3nc(Nc4c(F)cc(F)cc4F)n([C@H]4CCOC4)c3n2)CC1 ; value = 12800

###

protocol: Pharmacokinetics (plasma and urine) of ascending multiple oral doses in healthy volunteers
Type: in vivo, human
measurementContext: both sexes, human, plasma, oral, 200 mg, 200 mg QD, Day 1, plasma, healthy subjects (N = 8); geometric mean; read-out: Ctrough
reportedEndpoint: concentration at 24 h (ng/mL)
Response body: numeric value in ng/mL, unit text excluded.

response.value for O[C@H]1CC[C@H](Nc2ncc3nc(Nc4c(F)cc(F)cc4F)n([C@H]4CCOC4)c3n2)CC1 [Compound I] (field: concentration at 24 h) = 375

###

protocol: Pharmacokinetics (plasma and urine) of ascending multiple oral doses in healthy volunteers
Assay type: in vivo, human
measurementContext: both sexes, human, plasma, oral, 25 mg, 25 mg QD, Day 1, plasma, healthy subjects (N = 8); geometric mean; read-out: Ctrough
reportedEndpoint: concentration at 24 h (ng/mL)
Could you give me the number in ng/mL? Just the number is fine.

Lab note: measured concentration at 24 h of O[C@H]1CC[C@H](Nc2ncc3nc(Nc4c(F)cc(F)cc4F)n([C@H]4CCOC4)c3n2)CC1 [Compound I] was 55

###

protocol: Toxicokinetics in pregnant female rats
Format: in vivo, rat
measurementContext: female, CD [Crl:CD(SD)], rat, plasma, 100 mg/kg/day; pregnant rats, 100 mg/kg/d oral, Gestation Day 16
reportedEndpoint: AUC
Value and unit, in that order.

Measured AUC, O[C@H]1CC[C@H](Nc2ncc3nc(Nc4c(F)cc(F)cc4F)n([C@H]4CCOC4)c3n2)CC1 : 96900 ng·h/mL

###

protocol: clinical
measurementContext: female, human, in vivo, po, 100 mg, Cmax
reportedEndpoint: Cmax (ng/mL)
Quick note: give the figure in ng/mL, leave out the unit.

# molecule O[C@H]1CC[C@H](Nc2ncc3nc(Nc4c(F)cc(F)cc4F)n([C@H]4CCOC4)c3n2)CC1 ; its Cmax = 587

###

protocol: clinical
measurementContext: both sexes, human, in vivo, po, 100 mg, AUC0-∞, Geometric Means
reportedEndpoint: AUC(0-inf) (µg·h/mL)
Write it as a number; the unit µg·h/mL goes unstated.

// sample O[C@H]1CC[C@H](Nc2ncc3nc(Nc4c(F)cc(F)cc4F)n([C@H]4CCOC4)c3n2)CC1 , its AUC(0-inf) was 14.3

###

protocol: clinical
measurementContext: female, human, in vivo, po, 100 mg, Cmax, Geometric Means
reportedEndpoint: Cmax (ng/mL)
Number only, in ng/mL; omit the unit.

Memo: O[C@H]1CC[C@H](Nc2ncc3nc(Nc4c(F)cc(F)cc4F)n([C@H]4CCOC4)c3n2)CC1 , reported Cmax: 614

Attribution: patent US8603527B2
